test system: Serum; assay: Stability of the compound in Wistar rat serum assessed as prodrug degradation after 24 hrs; type: ADME, cell-free
MEASUREMENT LABEL: Drug degradation (%)

INSERT INTO measurements (molecule, obs_value) VALUES
  ('CCOc1ccc(-c2nc(NC(=O)[C@@H](N)Cc3ccccc3)sc2-c2cc(OC)c(OC)c(OC)c2)cc1.Cl', 70.21),
  ('CCOc1ccc(-c2nc(NC(=O)C(N)COCc3ccccc3)sc2-c2cc(OC)c(OC)c(OC)c2)cc1.Cl (centres undefined)', 42.56),
  ('CCOc1ccc(-c2nc(NC(=O)[C@@H](N)C(C)C)sc2-c2cc(OC)c(OC)c(OC)c2)cc1.Cl', 38.23),
  ('CCOc1ccc(-c2nc(NC(=O)[C@H](N)CC(C)C)sc2-c2cc(OC)c(OC)c(OC)c2)cc1.Cl', 91.1);

###

Listed below: inhibition in vivo at 10 mg/kg values for each entry.
test: Antitumor activity against human SKOV3 cells xenografted in BALB/C mouse assessed as inhibition ratio at 10 mg/kg, iv qd relative to control; type: functional; settings: SK-OV-3
MEASUREMENT LABEL: inhibition in vivo at 10 mg/kg (%)

INSERT INTO results (chemical_structure, obs_value) VALUES
  ('CCOc1ccc(-c2nc(NC(=O)[C@H](C)N)sc2-c2cc(OC)c(OC)c(OC)c2)cc1.Cl', 28.7),
  ('CCOc1ccc(-c2nc(NC(=O)CN)sc2-c2cc(OC)c(OC)c(OC)c2)cc1.Cl', 17.6),
  ('CCOc1ccc(-c2nc(NC(=O)[C@H](N)CC(C)C)sc2-c2cc(OC)c(OC)c(OC)c2)cc1.Cl', 33.1),
  ('CCOc1ccc(-c2nc(NC(=O)[C@@H](N)C(C)C)sc2-c2cc(OC)c(OC)c(OC)c2)cc1.Cl', 43.1);

###

assay: Aqueous solubility of the compound; format: physicochemical; details: water (aqueous)
MEASUREMENT LABEL: solubility (µM)

INSERT INTO results (compound, comparison_operator, obs_value) VALUES
  ('CCOc1ccc(-c2nc(NC(=O)[C@H](C)N)sc2-c2cc(OC)c(OC)c(OC)c2)cc1.Cl', '>', 10000),
  ('CCOc1ccc(-c2nc(NC(=O)[C@H](N)CC(C)C)sc2-c2cc(OC)c(OC)c(OC)c2)cc1.Cl', '=', 554),
  ('CCOc1ccc(-c2nc(N)sc2-c2cc(OC)c(OC)c(OC)c2)cc1', '<', 100),
  ('CCOc1ccc(-c2nc(NC(=O)C(N)COCc3ccccc3)sc2-c2cc(OC)c(OC)c(OC)c2)cc1.Cl (stereo not drawn)', '=', 259),
  ('CCOc1ccc(-c2nc(NC(=O)CN)sc2-c2cc(OC)c(OC)c(OC)c2)cc1.Cl', '>', 10000),
  ('CCOc1ccc(-c2nc(NC(=O)[C@@H](N)Cc3ccccc3)sc2-c2cc(OC)c(OC)c(OC)c2)cc1.Cl', '=', 436),
  ('CCOc1ccc(-c2nc(NC(=O)[C@@H](N)C(C)C)sc2-c2cc(OC)c(OC)c(OC)c2)cc1.Cl', '>', 10000),
  ('CCOc1ccc(-c2nc(NC(=O)[C@@H]3CCCN3)sc2-c2cc(OC)c(OC)c(OC)c2)cc1.Cl', '=', 458);

###

assay: Antitumor activity against human H460 cells xenografted in BALB/C mouse assessed as inhibition ratio at 20 mg/kg, ip qd relative to control; format: functional; settings: NCI-H460, ip, route intraperitoneal
Decision: inhibition in vivo at 20 mg/kg >= 50% yields Met, all other cases yield Not met.

INSERT INTO measurements (molecule, assigned_label) VALUES
  ('CCOc1ccc(-c2nc(NC(=O)[C@H](C)N)sc2-c2cc(OC)c(OC)c(OC)c2)cc1.Cl', 'Met'),
  ('CCOc1ccc(-c2nc(NC(=O)[C@@H](N)C(C)C)sc2-c2cc(OC)c(OC)c(OC)c2)cc1.Cl', 'Met'),
  ('CCOc1ccc(-c2nc(NC(=O)[C@@H]3CCCN3)sc2-c2cc(OC)c(OC)c(OC)c2)cc1.Cl', 'Not met'),
  ('CCOc1ccc(-c2nc(NC(=O)[C@H](N)CC(C)C)sc2-c2cc(OC)c(OC)c(OC)c2)cc1.Cl', 'Met'),
  ('CCOc1ccc(-c2nc(NC(=O)C(N)COCc3ccccc3)sc2-c2cc(OC)c(OC)c(OC)c2)cc1.Cl (configuration not stated)', 'Not met'),
  ('CCOc1ccc(-c2nc(NC(=O)[C@@H](N)Cc3ccccc3)sc2-c2cc(OC)c(OC)c(OC)c2)cc1.Cl', 'Not met');

###

system: Serum; test: Stability of the compound in Wistar rat serum assessed as prodrug degradation after 24 hrs; type: ADME, cell-free
MEASUREMENT LABEL: Drug degradation (%)

INSERT INTO assay_data (chemical_structure, measurement_label, obs_value) VALUES
  ('CCOc1ccc(-c2nc(NC(=O)CN)sc2-c2cc(OC)c(OC)c(OC)c2)cc1.Cl', 'Drug degradation', 25.92),
  ('CCOc1ccc(-c2nc(NC(=O)[C@H](C)N)sc2-c2cc(OC)c(OC)c(OC)c2)cc1.Cl', 'Drug degradation', 99.53),
  ('CCOc1ccc(-c2nc(NC(=O)[C@@H]3CCCN3)sc2-c2cc(OC)c(OC)c(OC)c2)cc1.Cl', 'Drug degradation', 16.55);

###

Form field: Drug degradation (one value per entry).
tested on: Serum; assay: Stability of the compound in Wistar rat serum assessed as prodrug degradation after 6 hrs; assay type: ADME, cell-free
MEASUREMENT LABEL: Drug degradation (%)

INSERT INTO results (compound, obs_value) VALUES
  ('CCOc1ccc(-c2nc(NC(=O)[C@H](N)CC(C)C)sc2-c2cc(OC)c(OC)c(OC)c2)cc1.Cl', 70.78),
  ('CCOc1ccc(-c2nc(NC(=O)[C@@H](N)Cc3ccccc3)sc2-c2cc(OC)c(OC)c(OC)c2)cc1.Cl', 45.85),
  ('CCOc1ccc(-c2nc(NC(=O)[C@@H]3CCCN3)sc2-c2cc(OC)c(OC)c(OC)c2)cc1.Cl', 12.54),
  ('CCOc1ccc(-c2nc(NC(=O)[C@@H](N)C(C)C)sc2-c2cc(OC)c(OC)c(OC)c2)cc1.Cl', 12.77),
  ('CCOc1ccc(-c2nc(NC(=O)[C@H](C)N)sc2-c2cc(OC)c(OC)c(OC)c2)cc1.Cl', 93.03),
  ('CCOc1ccc(-c2nc(NC(=O)CN)sc2-c2cc(OC)c(OC)c(OC)c2)cc1.Cl', 17.43),
  ('CCOc1ccc(-c2nc(NC(=O)C(N)COCc3ccccc3)sc2-c2cc(OC)c(OC)c(OC)c2)cc1.Cl (configuration not stated)', 39.46);
